# Tested Target: ALK (Homo sapiens)
# Construct: host or cells: baculovirus expression system
# Experimental Details: ALK Kinase Assay (ELISA/TRF, PLC-γ substrate)
# Type: biochemical
# Test Settings: ALK Kinase Inhibition; read-out: ALK Potency
# Experimental: Briefly, each 96-well plate was coated with […] of 10 μg/mL substrate (phospholipase C-γ) in Tris-buffered saline (TBS). […] The reaction was initiated by adding enzyme (30 ng/ml ALK) and was allowed to proceed at 37° C. for 15 minutes. Detection of the phosphorylated product was performed by adding 100 μl/well of Eu—N1 labeled PT66 antibody (Perkin Elmer # AD0041). Data analysis was performed using ActivityBase (IDBS, Guilford, UK). […]
Recorded IC50, one value per entry.

A selection of reference data follows.
O=S(=O)(c1ccc(-c2ccc3cnc(Nc4ccc(N5CCOCC5)cc4)nn23)cc1)N1CCCC1 [Example 63]: > 10000 nM
CN(c1ccccc1-c1cc(Cl)c2cnc(Nc3ccc(C4CCN(CC(N)=O)CC4)cc3)nn12)S(C)(=O)=O [Example 1553]: < 100 nM
CS(=O)(=O)Nc1ccc(-c2ccc3cnc(Nc4ccc(N5CCOCC5)cc4)nn23)cc1 [Example 200]: 100 to 1000 nM

As a next step, examine the molecule that follows.
IC50 reported for this molecule c1ccc(-c2ccc3cnc(Nc4ccc(N5CCOCC5)nc4)nn23)cc1 [Example 46] : 1000 to 10000 nM

###

# Tested Target: ALK (Homo sapiens, UniProt Q9UM73)
# Construct: host or cells: baculovirus expression system
# Sequence (Q9UM73 19-1620): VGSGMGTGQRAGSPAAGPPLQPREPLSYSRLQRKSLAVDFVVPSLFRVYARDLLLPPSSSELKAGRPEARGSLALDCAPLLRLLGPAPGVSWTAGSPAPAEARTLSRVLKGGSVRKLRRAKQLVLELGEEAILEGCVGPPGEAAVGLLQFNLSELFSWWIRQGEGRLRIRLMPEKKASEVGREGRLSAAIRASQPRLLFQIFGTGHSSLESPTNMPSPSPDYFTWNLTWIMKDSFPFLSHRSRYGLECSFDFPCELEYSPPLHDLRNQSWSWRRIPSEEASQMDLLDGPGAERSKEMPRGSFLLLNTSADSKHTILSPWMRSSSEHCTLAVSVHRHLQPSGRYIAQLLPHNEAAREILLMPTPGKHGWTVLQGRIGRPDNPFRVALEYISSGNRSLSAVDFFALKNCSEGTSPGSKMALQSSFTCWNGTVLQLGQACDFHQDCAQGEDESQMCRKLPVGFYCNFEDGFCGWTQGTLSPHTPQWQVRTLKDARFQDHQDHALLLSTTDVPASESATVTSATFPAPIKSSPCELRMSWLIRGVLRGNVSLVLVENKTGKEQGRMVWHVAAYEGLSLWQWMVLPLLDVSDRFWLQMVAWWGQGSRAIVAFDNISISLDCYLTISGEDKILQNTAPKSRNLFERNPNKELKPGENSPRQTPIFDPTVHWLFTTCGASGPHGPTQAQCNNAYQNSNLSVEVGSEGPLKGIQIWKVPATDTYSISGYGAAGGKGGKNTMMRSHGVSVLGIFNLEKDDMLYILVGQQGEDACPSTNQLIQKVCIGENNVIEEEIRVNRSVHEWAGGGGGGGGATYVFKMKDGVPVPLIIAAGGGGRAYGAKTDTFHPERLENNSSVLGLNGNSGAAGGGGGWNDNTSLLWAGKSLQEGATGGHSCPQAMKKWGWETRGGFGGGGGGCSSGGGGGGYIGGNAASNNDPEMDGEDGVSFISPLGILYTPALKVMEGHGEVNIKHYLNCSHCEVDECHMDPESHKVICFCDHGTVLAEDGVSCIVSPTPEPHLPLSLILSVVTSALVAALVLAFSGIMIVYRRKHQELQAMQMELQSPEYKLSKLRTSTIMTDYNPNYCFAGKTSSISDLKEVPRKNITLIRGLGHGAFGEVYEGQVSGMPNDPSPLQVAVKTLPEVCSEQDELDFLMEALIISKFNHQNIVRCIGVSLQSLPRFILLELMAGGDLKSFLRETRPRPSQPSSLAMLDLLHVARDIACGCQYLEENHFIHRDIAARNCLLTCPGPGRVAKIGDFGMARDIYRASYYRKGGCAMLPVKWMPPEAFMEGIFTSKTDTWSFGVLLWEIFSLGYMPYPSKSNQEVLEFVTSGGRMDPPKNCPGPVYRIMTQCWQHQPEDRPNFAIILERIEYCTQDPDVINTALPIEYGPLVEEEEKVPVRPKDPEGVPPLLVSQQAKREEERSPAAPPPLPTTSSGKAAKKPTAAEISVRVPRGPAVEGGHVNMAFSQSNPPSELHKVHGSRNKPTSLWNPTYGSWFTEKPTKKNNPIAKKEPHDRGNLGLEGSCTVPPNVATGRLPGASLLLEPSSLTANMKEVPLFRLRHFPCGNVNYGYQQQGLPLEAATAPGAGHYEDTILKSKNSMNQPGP
# Experimental Details: ALK Kinase Assay (ELISA/TRF, PLC-γ substrate)
# Assay type: biochemical
# Test Settings: ALK kinase inhibition, 1 μM ATP; read-out: ALK Potency
# Experimental: Briefly, each 96-well plate was coated with […] of 10 μg/mL substrate (phospholipase C-γ) in Tris-buffered saline (TBS). […] The reaction was initiated by adding enzyme (30 ng/ml ALK) and was allowed to proceed at 37° C. for 15 minutes. Detection of the phosphorylated product was performed by adding 100 μl/well of Eu—N1 labeled PT66 antibody (Perkin Elmer # AD0041). Data analysis was performed using ActivityBase (IDBS, Guilford, UK). […]
Recorded IC50, one value per entry.

IC50 reported for this molecule COc1cc(N2CCC(N3CCOCC3)CC2)ccc1Nc1ncc2ccc(-c3ccc(Cl)cc3OC)n2n1 : < 100 nM

IC50 reported for this molecule Cn1ccc(-c2ccc3cnc(Nc4ccc(C5CCN(CC(N)=O)CC5)cc4)nn23)n1 : 100 to 1000 nM

IC50 reported for this molecule CON=C1CCC(c2ccc(Nc3ncc4ccc(-c5cccc(S(=O)(=O)C(C)C)c5)n4n3)cc2)CC1 (stereo not shown) : 1000 to 10000 nM

IC50 reported for this molecule COc1cc(N2CCC3(CC2)OCCO3)ccc1Nc1ncc2ccc(-c3ccccc3OC)n2n1 : 100 to 1000 nM

IC50 reported for this molecule COc1cc(N2CCC(N(C)C)C2)ccc1Nc1ncc2ccc(-c3ccccc3OC)n2n1 (stereo not shown) : < 100 nM

IC50 reported for this molecule Cn1cnc2ccc(Nc3ncc4ccc(-c5cccc(S(=O)(=O)CC6CC6)c5)n4n3)cc21 : 100 to 1000 nM

IC50 reported for this molecule CC(C)(C)NS(=O)(=O)c1cccc(-c2ccc3cnc(Nc4ccc(=O)[nH]c4)nn23)c1 : 1000 to 10000 nM

IC50 reported for this molecule COc1ccc(-c2ccc3cnc(Nc4cnn(CCN5CCOCC5)c4)nn23)cn1 : 1000 to 10000 nM

IC50 reported for this molecule COc1cc(N2CCC(N3CCCC3)CC2)ccc1Nc1ncc2ccc(-c3ccccc3N(C)S(C)(=O)=O)n2n1 : < 100 nM

###

Recorded pIC50, one value per entry.
# Tested Target: ALK (Homo sapiens)
# Construct: host or cells: baculovirus expression system
# Experimental Details: ALK Kinase Assay (ELISA/TRF, PLC-γ substrate)
# Format: biochemical
# Test Settings: ALK Kinase Inhibition; read-out: ALK Potency
pIC50: −log10 of the molar value.

A selection of reference data follows.
COc1ccccc1-c1ccc2cnc(Nc3cccc(C(=O)N4CCN(C)CC4)c3)nn12: 6.00 to 7.00
OCCN1CCN(c2cccc(Nc3ncc4ccc(-c5cccc(Cl)c5)n4n3)c2)CC1: > 7.00
CN1CCN(c2cccc(Nc3ncc4ccc(-c5cccc(N6CCOCC6)c5)n4n3)c2)CC1: 6.00 to 7.00
CN(C)C(=O)CN1CCc2ccc(Nc3ncc4ccc(Br)n4n3)cc2CC1: 5.00 to 6.00

pIC50 reported for this compound O=S1(=O)CCCN1c1cccc(-c2ccc3cnc(Nc4ccc5nc[nH]c5c4)nn23)c1 : 5.00 to 6.00

pIC50 reported for this compound CN1CCN(c2ccc(Nc3ncc4ccc(-c5cccc(S(=O)(=O)NCCO)c5)n4n3)cc2)CC1 : 6.00 to 7.00

pIC50 reported for this compound CS(=O)(=O)c1ccc(-c2ccc3cnc(Nc4ccc(N5CCN(CCO)CC5)cc4)nn23)cc1 : 6.00 to 7.00

pIC50 reported for this compound COc1cc(Nc2ncc3ccc(-c4cccc(Cl)c4)n3n2)cc(OC)c1 : < 5.00

pIC50 reported for this compound COCCN1CCc2cc(Nc3ncc4ccc(-c5ccccc5OC)n4n3)c(OC)cc2CC1 : > 7.00

###

Recorded IC50, one value per entry.
# Tested Target: JAK2 (Homo sapiens)
# Construct: host or cells: baculovirus expression system
# Sequence (O60674 whole entry): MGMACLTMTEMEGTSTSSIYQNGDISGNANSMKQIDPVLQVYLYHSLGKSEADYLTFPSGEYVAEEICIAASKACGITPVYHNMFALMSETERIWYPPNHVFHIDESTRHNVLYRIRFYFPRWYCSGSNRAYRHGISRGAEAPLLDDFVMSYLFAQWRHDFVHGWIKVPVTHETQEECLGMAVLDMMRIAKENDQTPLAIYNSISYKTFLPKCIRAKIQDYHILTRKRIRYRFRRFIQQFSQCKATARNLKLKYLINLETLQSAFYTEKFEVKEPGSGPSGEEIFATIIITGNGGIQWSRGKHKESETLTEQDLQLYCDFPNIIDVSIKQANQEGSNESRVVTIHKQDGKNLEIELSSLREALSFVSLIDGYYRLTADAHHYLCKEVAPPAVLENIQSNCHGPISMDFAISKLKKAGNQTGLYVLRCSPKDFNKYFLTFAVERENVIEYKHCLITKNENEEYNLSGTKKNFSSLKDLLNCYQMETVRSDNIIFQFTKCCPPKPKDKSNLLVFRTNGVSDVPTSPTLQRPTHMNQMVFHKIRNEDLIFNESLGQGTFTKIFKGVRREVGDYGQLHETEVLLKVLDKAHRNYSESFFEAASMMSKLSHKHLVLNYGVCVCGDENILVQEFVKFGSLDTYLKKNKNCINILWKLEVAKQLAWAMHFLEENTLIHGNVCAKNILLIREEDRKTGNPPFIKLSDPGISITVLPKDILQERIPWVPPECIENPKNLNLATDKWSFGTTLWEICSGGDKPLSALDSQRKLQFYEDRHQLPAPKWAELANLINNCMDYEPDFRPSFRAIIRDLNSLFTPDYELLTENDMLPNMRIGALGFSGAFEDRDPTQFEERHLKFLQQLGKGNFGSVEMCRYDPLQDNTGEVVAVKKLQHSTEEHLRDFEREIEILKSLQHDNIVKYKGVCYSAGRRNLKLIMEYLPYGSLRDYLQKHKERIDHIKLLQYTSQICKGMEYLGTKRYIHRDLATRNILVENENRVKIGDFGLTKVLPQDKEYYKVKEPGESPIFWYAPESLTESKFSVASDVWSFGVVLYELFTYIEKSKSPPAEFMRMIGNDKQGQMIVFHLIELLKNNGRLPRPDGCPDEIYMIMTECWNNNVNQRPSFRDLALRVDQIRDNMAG
# Experimental Details: Recombinant Human JAK2 Kinase Assay (TRF)
# Type: biochemical
# Test Settings: JAK2 kinase inhibition, 0.2 μM ATP; read-out: JAK2 Potency

A selection of reference data follows.
CC(C)(C)NS(=O)(=O)c1cccc(-c2ccc3cnc(Nc4ccc5ncsc5c4)nn23)c1 [Example 573]: < 100 nM
COc1ccc(-c2ccc3cnc(Nc4ccc5c(c4)CN(CC(N)=O)CC5)nn23)cn1 [Example 986]: < 100 nM
COc1cc(C2CCN(CC(N)=O)CC2)ccc1Nc1ncc2ccc(-c3ccccc3C#N)n2n1 [Example 517]: 100 to 1000 nM
COc1c(Nc2ncc3ccc(-c4ccccc4N(C)S(C)(=O)=O)n3n2)cccc1C(=O)N1CCN(CCO)CC1 [Example 1232]: > 10000 nM

IC50 reported for this molecule c1ccc2ncc(-c3ccc4cnc(Nc5ccc(N6CCOCC6)cc5)nn34)cc2c1 [Example 1033] : < 100 nM

###

# Tested Target: ALK (Homo sapiens, UniProt Q9UM73)
# Construct: host or cells: baculovirus expression system
# Experimental Details: ALK Kinase Assay (ELISA/TRF, PLC-γ substrate)
# Assay type: biochemical
# Test Settings: ALK kinase inhibition, 1 μM ATP; read-out: ALK Potency
Assay Endpoint: IC50

COc1cc(C2CCN(CC(N)=O)C2)ccc1Nc1ncc2ccc(-c3ccccc3OC)n2n1 (racemic) [Example 836]: < 0.1 µM
CCN(CC)C1CCN(c2ccc(Nc3ncc4ccc(-c5cccc(NS(=O)(=O)C(C)(C)C)c5)n4n3)cc2)CC1 [Example 1205]: 0.1 to 1 µM
COc1cc(OC2CCN(C)CC2)ccc1Nc1ncc2ccc(-c3ccccc3OC)n2n1 [Example 998]: < 0.1 µM
COc1cc([C@H]2CC[C@@H](N3CCOCC3)CC2)ccc1Nc1ncc2ccc(-c3ccccc3N(C)S(C)(=O)=O)n2n1 [Example 1249]: < 0.1 µM
COc1ccccc1-c1ccc2cnc(Nc3ccc(Cl)c(OCC4CCCN4C)c3)nn12 (stereo not drawn) [Example 1011]: 0.1 to 1 µM
COc1cc([C@H]2CC[C@H](N3CCOCC3)CC2)ccc1Nc1ncc2ccc(-c3ccccc3N(C)S(C)(=O)=O)n2n1 [Example 1248]: < 0.1 µM
COc1ccccc1-c1ccc2cnc(Nc3ccc4oc(C)nc4c3)nn12 [Example 564]: 0.1 to 1 µM
COc1ccc(-c2ccc3cnc(Nc4ccc5c(c4)CN(CC(N)=O)CC5)nn23)cn1 [Example 986]: 1 to 10 µM

IC50 for ALK (Homo sapiens, UniProt Q9UM73) with input CN1CCN(c2ccc(Nc3ncc4ccc(-c5cccc(NS(C)(=O)=O)c5)n4n3)cn2)CC1 [Example 1122] equals 0.1 to 1 µM

IC50 for ALK (Homo sapiens, UniProt Q9UM73) with input COc1cc2c(cc1Nc1ncc3ccc(-c4ccccc4N(C)S(C)(=O)=O)n3n1)CN(C)C2 [Example 809] equals < 0.1 µM

IC50 for ALK (Homo sapiens, UniProt Q9UM73) with input COc1cc(N2CCCN(C[C@H](O)CO)CC2)ccc1Nc1ncc2ccc(-c3ccccc3OC)n2n1 [Example 767] equals < 0.1 µM

IC50 for ALK (Homo sapiens, UniProt Q9UM73) with input COc1cc(N(C)C(=O)CN2CCOCC2)ccc1Nc1ncc2ccc(-c3ccccc3N(C)S(C)(=O)=O)n2n1 [Example 473] equals < 0.1 µM

IC50 for ALK (Homo sapiens, UniProt Q9UM73) with input COc1ccc(C(=O)N2CCN(C)CC2)cc1Nc1ncc2ccc(-c3ccccc3N(C)S(C)(=O)=O)n2n1 [Example 496] equals 1 to 10 µM

IC50 for ALK (Homo sapiens, UniProt Q9UM73) with input COc1cc(C2CCN(CC(N)=O)C2)ccc1Nc1ncc2ccc(-c3ccccc3N(C)S(C)(=O)=O)n2n1 (racemic) [Example 837] equals < 0.1 µM

IC50 for ALK (Homo sapiens, UniProt Q9UM73) with input N#CCCc1cccc(-c2ccc3cnc(Nc4ccc5c(c4)CCC(N4CCOCC4)CC5)nn23)c1 (stereo not drawn) [Example 1148] equals < 0.1 µM
